settings: in PEG-400, 313.15 K
attributeMeasured: solubility (mole fraction)
Just the number, please, no unit after it.

Ask | For `COc1cc(/C=C/C(=O)O)cc(OC)c1O` , what is its reported solubility (mole fraction)?
Reply | 0.0748

====

details: in propylene glycol, 298.15 K
attributeMeasured: solubility (mole fraction)

Ask | For `COc1cc(/C=C/C(=O)O)cc(OC)c1O` , what is its reported solubility (mole fraction)?
Reply | 0.00452

====

conditions: in PEG-400, 298.15 K
attributeMeasured: solubility (mole fraction)
Just the number, please, no unit after it.

Ask | For `COc1cc(/C=C/C(=O)O)cc(OC)c1O` , what is its reported solubility (mole fraction)?
Reply | 0.0558

====

settings: in ethanol, 303.15 K
attributeMeasured: solubility (mole fraction)
Just the number, please, no unit after it.

Ask | For `COc1cc(/C=C/C(=O)O)cc(OC)c1O` , what is its reported solubility (mole fraction)?
Reply | 0.013

====

details: in transcutol, 298.15 K
attributeMeasured: solubility (mole fraction)

Ask | For `COc1cc(/C=C/C(=O)O)cc(OC)c1O` , what is its reported solubility (mole fraction)?
Reply | 0.0298

====

conditions: in PEG-400, 318.15 K
attributeMeasured: solubility (mole fraction)
Just the number, please, no unit after it.

Ask | For `COc1cc(/C=C/C(=O)O)cc(OC)c1O` , what is its reported solubility (mole fraction)?
Reply | 0.0834

====

conditions: in sec-butanol, 318.15 K
attributeMeasured: solubility (mole fraction)
Just the number, please, no unit after it.

Ask | For `COc1cc(/C=C/C(=O)O)cc(OC)c1O` , what is its reported solubility (mole fraction)?
Reply | 0.00761
